Below, each entry is listed alongside its reported IC50.
- assayedTarget: β5i subunit of human iCP (Homo sapiens, UniProt P20618+P28062)
- Construct: purchased Boston Biochem, Inc., Cambridge, MA, USA
- protocolDetails: Inhibition of β5i activity (RA at 10 µM, IC50, IC50 shift), Suc-LLVY-AMC
- Type: biochemical
- assayContext: 30 min pre-incubation, SDS activator; read-out: IC50 (µM), β5i
- Procedure: Residual activity measurements were performed at 10 μM final concentrations in the assay buffer (0.01% SDS, 50 mM Tris-HCl, 0.5 mM EDTA, pH 7.4). Stock solutions of the compounds were prepared in DMSO. To 50 μL of each compound in buffer, 25 μL of 0.8 nM human iCP or human cCP (both from Boston Biochem, Inc., Cambridge, MA, USA) were added. […] Reaction progress was recorded on BioTek Synergy HT microplate reader by monitoring fluorescence at 460 nm (λex = 360 nm) for 90 min at 37 °C. […]
Quick note: give the figure in µM, leave out the unit.

Could you please provide reported IC50 for CC(C)C[C@H](NC(=O)CCn1c(C#N)nc2ccccc21)B(O)O ? Thanks! 2.2

Could you please provide reported IC50 for CC(C)C[C@H](NC(=O)Cc1ccc2oc(C#N)nc2c1)B1O[C@@H]2C[C@@H]3C[C@@H](C3(C)C)[C@]2(C)O1 ? Thanks! 3.1

Could you please provide reported IC50 for COc1ccc2nc(C#N)oc2c1 ? Thanks! 11

Could you please provide reported IC50 for CC(C)C[C@H](NC(=O)CCn1c(C#N)nc2ccc(Cl)cc21)B1O[C@@H]2C[C@@H]3C[C@@H](C3(C)C)[C@]2(C)O1 ? Thanks! 1.6

Could you please provide reported IC50 for CC(C)C[C@H](NC(=O)CCn1c(C#N)nc2cccc(Cl)c21)B1O[C@@H]2C[C@@H]3C[C@@H](C3(C)C)[C@]2(C)O1 ? Thanks! 0.6

Could you please provide reported IC50 for N#Cc1nc2c(O)cccc2o1 ? Thanks! 3.6

Could you please provide reported IC50 for CC(C)C[C@H](NC(=O)Cc1ccc2oc(C#N)nc2c1)B(O)O ? Thanks! 2.4

Could you please provide reported IC50 for CC(C)C[C@H](NC(=O)CCCn1c(C#N)nc2ccccc21)B1O[C@@H]2C[C@@H]3C[C@@H](C3(C)C)[C@]2(C)O1 ? Thanks! 5.7

# ---- query compound ----
Could you please provide reported IC50 for C=Cc1nc(CC(=O)N[C@@H](CC(C)C)B2O[C@@H]3C[C@@H]4C[C@@H](C4(C)C)[C@]3(C)O2)cs1 ? Thanks! 1.4

###

- assayedTarget: β1i subunit of human iCP (Homo sapiens, UniProt P28065+P40306)
- Construct: purchased Boston Biochem, Inc., Cambridge, MA, USA
- protocolDetails: Inhibition of β1i activity (RA, IC50), Ac-PAL-AMC
- Type: biochemical
- assayContext: 10 µM, PA28α, Table 3; read-out: β1i residual activity at 10 µM
valueKind: remaining activity at 10 µM

Report remaining activity at 10 µM on β1i subunit of human iCP (Homo sapiens, UniProt P28065+P40306) for this entry: CC(=O)Oc1cccc2oc(C#N)nc12 [Compound 14] > 90%

Report remaining activity at 10 µM on β1i subunit of human iCP (Homo sapiens, UniProt P28065+P40306) for this entry: N#Cc1nc2cccc(O)c2o1 [Compound 13] > 90%

Report remaining activity at 10 µM on β1i subunit of human iCP (Homo sapiens, UniProt P28065+P40306) for this entry: CC(C)C[C@H](NC(=O)[C@H](Cc1ccccc1)NC(=O)c1cnccn1)B(O)O [Bortezomib, reference compound] 0%

Report remaining activity at 10 µM on β1i subunit of human iCP (Homo sapiens, UniProt P28065+P40306) for this entry: N#Cc1nc2cc(O)ccc2o1 [Compound 11] > 90%

Report remaining activity at 10 µM on β1i subunit of human iCP (Homo sapiens, UniProt P28065+P40306) for this entry: CC(=O)Oc1ccc2oc(C#N)nc2c1 [Compound 15] > 90%

Report remaining activity at 10 µM on β1i subunit of human iCP (Homo sapiens, UniProt P28065+P40306) for this entry: N#Cc1nc2c(O)cccc2o1 [Compound 10] > 90%

Measured values drawn from paper PMC8700061 for this set.
